- assayed.system: Amine oxidase [flavin-containing] A (Homo sapiens)
- Sequence (P21397 whole entry): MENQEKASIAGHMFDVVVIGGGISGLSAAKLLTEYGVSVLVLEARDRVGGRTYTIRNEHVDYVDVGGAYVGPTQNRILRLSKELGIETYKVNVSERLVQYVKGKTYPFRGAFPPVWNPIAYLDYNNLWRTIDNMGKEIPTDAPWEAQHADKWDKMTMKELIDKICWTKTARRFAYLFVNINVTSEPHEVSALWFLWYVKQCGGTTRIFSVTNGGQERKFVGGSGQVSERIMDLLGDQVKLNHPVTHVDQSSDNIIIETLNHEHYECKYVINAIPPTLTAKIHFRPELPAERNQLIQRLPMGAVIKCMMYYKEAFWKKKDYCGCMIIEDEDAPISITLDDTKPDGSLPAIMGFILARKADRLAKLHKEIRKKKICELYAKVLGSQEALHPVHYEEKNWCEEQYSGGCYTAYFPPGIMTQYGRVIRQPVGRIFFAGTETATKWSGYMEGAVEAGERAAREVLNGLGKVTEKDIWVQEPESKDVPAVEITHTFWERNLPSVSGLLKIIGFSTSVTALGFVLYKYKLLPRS
- test.description: Inhibition of recombinant human MAO-A assessed as reduction in 4-hydroxyquinoline formation using kynuramine as substrate after 20 mins by fluorometric assay
assay.endpoint: pIC50
# reply with the number alone; pIC50 is -log10 of concentration in mol/L

Per the record, COc1ccc(-c2cc(=O)c3c(O)cc(O)cc3o2)cc1 [ACACETIN] has pIC50 of 6.92

* * *

- assayed.system: Amine oxidase [flavin-containing] B (Homo sapiens)
- Sequence (P27338 whole entry): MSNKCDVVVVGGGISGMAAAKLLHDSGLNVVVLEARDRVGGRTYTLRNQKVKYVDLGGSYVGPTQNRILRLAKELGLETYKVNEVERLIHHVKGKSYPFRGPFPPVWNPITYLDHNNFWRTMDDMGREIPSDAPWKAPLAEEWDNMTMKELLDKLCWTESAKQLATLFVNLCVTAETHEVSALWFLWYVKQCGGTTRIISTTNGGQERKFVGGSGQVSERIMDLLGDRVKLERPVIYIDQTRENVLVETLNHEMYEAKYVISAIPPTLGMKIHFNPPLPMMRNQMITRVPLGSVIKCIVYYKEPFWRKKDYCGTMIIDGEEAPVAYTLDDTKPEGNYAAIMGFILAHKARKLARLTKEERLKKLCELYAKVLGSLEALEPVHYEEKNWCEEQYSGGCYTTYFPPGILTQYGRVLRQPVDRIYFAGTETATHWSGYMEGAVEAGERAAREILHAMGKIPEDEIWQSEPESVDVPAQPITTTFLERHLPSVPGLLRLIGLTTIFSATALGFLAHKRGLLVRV
- test.description: Inhibition of recombinant human MAO-B after 30 mins
assay.endpoint: IC50 (µM)
Quick note: give the figure in µM, leave out the unit.

Per the record, O=C1C[C@@H](c2ccc(O)cc2)Oc2cc(O)cc(O)c21 [NARINGENIN] has IC50 of 288

* * *

- assayed.system: Amine oxidase [flavin-containing] A (Homo sapiens)
- test.description: Inhibition of recombinant human MAO-A after 30 mins
assay.endpoint: pIC50
# reply with the number alone; pIC50 is -log10 of concentration in mol/L

Per the record, O=C1C[C@@H](c2ccc(O)cc2)Oc2cc(O)cc(O)c21 has pIC50 of 3.02
